experiment_description: CDD-2807 concentrations in mouse brain, liver, lung, and testis
Format: in vivo, mice
stated_conditions: C57/129 hybrid, mouse, testis, intraperitoneal; 50 mg/kg/day over 7 days
endpoint_name: concentration at 7 day

{"compound_structure": "O=C(c1ccc2[nH]nc(C#Cc3ccccc3-c3ccccc3)c2c1)N1CC2(CCCNC2)C1", "test_result": "~24000 ng/g"}

###

experiment_description: CDD-2807 concentrations in mouse brain, liver, lung, and testis
Type: in vivo, mice
stated_conditions: male, C57/129 hybrid, mouse, testis, ip; protocol 2 (50 mg/kg i.p. once per day), day 63
endpoint_name: concentration at 63 day (ng/g)

{"compound_structure": "O=C(c1ccc2[nH]nc(C#Cc3ccccc3-c3ccccc3)c2c1)N1CC2(CCCNC2)C1", "test_result": 114000}

###

experiment_description: Pharmacokinetics (PK) of CDD-2807 in mice
Type: in vivo
stated_conditions: male, C57BL/6NJ, mouse, ip, i.p. injection 5 mg/kg, plasma

{"compound_structure": "O=C(c1ccc2[nH]nc(C#Cc3ccccc3-c3ccccc3)c2c1)N1CC2(CCCNC2)C1", "unit_symbol": "µM·h", "AUC(0-inf)": 11.2}

Value source: paper PMC11842024
